# Study system: E. coli Topoisomerase IV (Escherichia coli, UniProt P0AFI2+P20083)
# Construct: purchased Inspiralis, UK
# Sequence (P20083 whole entry): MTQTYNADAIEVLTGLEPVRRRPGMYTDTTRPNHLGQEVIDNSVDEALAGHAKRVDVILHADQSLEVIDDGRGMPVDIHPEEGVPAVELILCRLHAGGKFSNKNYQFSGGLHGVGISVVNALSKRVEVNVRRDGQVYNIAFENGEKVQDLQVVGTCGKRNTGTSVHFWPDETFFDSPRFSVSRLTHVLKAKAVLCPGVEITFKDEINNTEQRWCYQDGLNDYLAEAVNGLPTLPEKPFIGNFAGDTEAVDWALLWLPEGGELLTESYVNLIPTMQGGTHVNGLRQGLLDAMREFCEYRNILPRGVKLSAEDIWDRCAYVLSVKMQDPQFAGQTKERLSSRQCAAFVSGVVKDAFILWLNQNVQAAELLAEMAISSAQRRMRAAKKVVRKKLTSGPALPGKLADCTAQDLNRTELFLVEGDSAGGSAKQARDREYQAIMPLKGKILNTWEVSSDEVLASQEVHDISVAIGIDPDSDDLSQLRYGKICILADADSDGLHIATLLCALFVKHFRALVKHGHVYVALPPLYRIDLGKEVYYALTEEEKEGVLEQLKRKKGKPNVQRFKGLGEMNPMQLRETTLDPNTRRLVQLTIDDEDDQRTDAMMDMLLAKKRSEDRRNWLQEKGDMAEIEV
# Sequence (P0AFI2 whole entry): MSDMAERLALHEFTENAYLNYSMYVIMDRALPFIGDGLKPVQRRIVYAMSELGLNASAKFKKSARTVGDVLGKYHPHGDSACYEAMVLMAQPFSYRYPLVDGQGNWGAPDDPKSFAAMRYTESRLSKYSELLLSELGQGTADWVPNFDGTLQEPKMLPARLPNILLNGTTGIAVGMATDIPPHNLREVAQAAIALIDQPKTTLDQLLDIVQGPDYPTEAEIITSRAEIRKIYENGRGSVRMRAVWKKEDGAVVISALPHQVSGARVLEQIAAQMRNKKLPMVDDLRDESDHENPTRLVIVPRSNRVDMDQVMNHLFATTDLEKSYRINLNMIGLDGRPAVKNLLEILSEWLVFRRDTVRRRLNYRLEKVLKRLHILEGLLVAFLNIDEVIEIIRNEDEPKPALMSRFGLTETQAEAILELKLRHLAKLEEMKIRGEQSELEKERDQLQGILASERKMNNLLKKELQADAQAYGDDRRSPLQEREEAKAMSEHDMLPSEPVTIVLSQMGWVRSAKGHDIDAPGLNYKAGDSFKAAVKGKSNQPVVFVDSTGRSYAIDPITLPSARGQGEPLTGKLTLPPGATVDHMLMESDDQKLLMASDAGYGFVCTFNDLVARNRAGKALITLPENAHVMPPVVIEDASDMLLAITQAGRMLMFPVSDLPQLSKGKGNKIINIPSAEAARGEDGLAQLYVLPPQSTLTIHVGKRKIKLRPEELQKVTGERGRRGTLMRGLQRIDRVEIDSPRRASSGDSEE
# Test summary: Topoisomerase IV decatenation assay (E. coli)
# Assay type: biochemical
# Assay setup: E. coli; conc. 50 μM; n/a = not active; read-out: % inhibition Topo IV
Where a name gives a salt, the structure may show the parent alone.
Quantity: inhibition at 50 µM (%)
Provide only the numeric value, understood in %.

input: Looking for the measured inhibition at 50 µM of CC1CN(c2nccc3ccc(F)cc23)CCC1NCc1cc2c(=O)oc3ccccc3c2[nH]1 (stereo not drawn) [Compound 177] , can you help?
output: 74

input: Looking for the measured inhibition at 50 µM of Fc1ccc2ccnc(N3CCN(CCNCc4cc5c(cn4)OCCC5)CC3)c2c1 [Compound 150] , can you help?
output: 50

input: Looking for the measured inhibition at 50 µM of O=c1oc2ccccc2c2[nH]c(CNC3CCN(c4nccc5ccc(F)cc45)CC3)c(C(F)(F)F)c12 [Compound 153] , can you help?
output: 50

input: Looking for the measured inhibition at 50 µM of COC1CN(c2nccc3ccc(F)cc23)CCC1NCc1cc2c(=O)oc3ccccc3c2[nH]1 (stereo not drawn) [Compound 171] , can you help?
output: 97

input: Looking for the measured inhibition at 50 µM of O=c1oc2ccccc2c2[nH]c(C(O)CN3CCN(c4nccc5ccc(F)cc45)CC3)nc12 (stereo not drawn) [Compound 152, hydrochloride] , can you help?
output: 100

input: Looking for the measured inhibition at 50 µM of O=c1nc(NCC(O)CN2CCN(c3nc(F)cc4ccc(F)cc34)CC2)c2cc(F)ccc2o1 (stereo not drawn) [Compound 149] , can you help?
output: 90

input: Looking for the measured inhibition at 50 µM of O=c1oc2ccccc2c2[nH]c(CNC3CCN(c4nccc5ccc(F)cc45)CC3F)cc12 (stereo not drawn) [Compound 172] , can you help?
output: 89

input: Looking for the measured inhibition at 50 µM of COc1ccc2nccc(N3CCC(NCc4cc5c([nH]4)c(=O)oc4ccc(F)cc45)CC3)c2n1 [Compound 188] , can you help?
output: 92

input: Looking for the measured inhibition at 50 µM of O=c1cc(CC(O)CCN2CCN(c3nccc4ccc(F)cc34)CC2)c2ccccc2o1 (stereo not drawn) [Compound 134] , can you help?
output: 78

input: Looking for the measured inhibition at 50 µM of NC(CN1CCN(c2nccc3ccc(F)cc23)CC1)c1nc2c(=O)oc3ccccc3c2[nH]1 (stereo not drawn) [Compound 158, hydrochloride] , can you help?
output: 97

input: Looking for the measured inhibition at 50 µM of O=c1cc(NCCCN2CCN(c3nccc4ccc(F)cc34)CC2)c2c(o1)CCOC2 [Compound 125] , can you help?
output: 68

input: Looking for the measured inhibition at 50 µM of O=c1oc2ccccc2c2[nH]c(CCN3CCN(c4nccc5ccc(F)cc45)CC3)nc12 [Compound 143] , can you help?
output: 91

input: Looking for the measured inhibition at 50 µM of O=CNC(CN1CCN(c2nccc3ccc(F)cc23)CC1)c1nc2c(=O)oc3ccccc3c2[nH]1 (stereo not drawn) [Compound 159, hydrochloride] , can you help?
output: 98

input: Looking for the measured inhibition at 50 µM of O=c1oc2ccccc2c2[nH]c(CNC3CCN(c4nccc5ccc(F)cc45)CC3)nc12 [Compound 146] , can you help?
output: 100

input: Looking for the measured inhibition at 50 µM of CCOC(=O)C1CN(c2nccc3ccc(F)cc23)CCC1NCc1cc2c(=O)oc3ccccc3c2[nH]1 (racemic) [Compound 184] , can you help?
output: 58
